These data points were gathered from ChEMBL document CHEMBL1138485.

# study system: Nitric oxide synthase 1 (Homo sapiens)
# assay comment: Inhibition of human nNOS expressed in HEK293 cells assessed as NO production by transient transfection assay
# Format: cell-based
I'd be grateful if you could share measured EC50 for these entries.
Numbers only here, please. The scale is µM.

Q: Reported EC50 for `Cc1ncsc1C(=O)N(Cc1cc(=O)[nH]c2c(F)cccc12)c1cccc(C#N)c1` : what is it?
Ans: 2.7

Q: Reported EC50 for `Cc1ccncc1C(=O)N(Cc1cc(=O)[nH]c2c(F)cccc12)c1cccc(Cl)c1` : what is it?
Ans: 2.2

Q: Reported EC50 for `CC1=C(C(=O)N(Cc2cc(=O)[nH]c3c(F)c(F)ccc23)c2cccc(Cl)c2)CNCC1` : what is it?
Ans: 0.29

Q: Reported EC50 for `Cn1cncc1C(=O)N(Cc1cc(=O)[nH]c2c(F)c(F)ccc12)c1cccc(Cl)c1` : what is it?
Ans: 0.07

---

# study system: Nitric oxide synthase 1 (Homo sapiens, UniProt P29475)
# Sequence (P29475 whole entry): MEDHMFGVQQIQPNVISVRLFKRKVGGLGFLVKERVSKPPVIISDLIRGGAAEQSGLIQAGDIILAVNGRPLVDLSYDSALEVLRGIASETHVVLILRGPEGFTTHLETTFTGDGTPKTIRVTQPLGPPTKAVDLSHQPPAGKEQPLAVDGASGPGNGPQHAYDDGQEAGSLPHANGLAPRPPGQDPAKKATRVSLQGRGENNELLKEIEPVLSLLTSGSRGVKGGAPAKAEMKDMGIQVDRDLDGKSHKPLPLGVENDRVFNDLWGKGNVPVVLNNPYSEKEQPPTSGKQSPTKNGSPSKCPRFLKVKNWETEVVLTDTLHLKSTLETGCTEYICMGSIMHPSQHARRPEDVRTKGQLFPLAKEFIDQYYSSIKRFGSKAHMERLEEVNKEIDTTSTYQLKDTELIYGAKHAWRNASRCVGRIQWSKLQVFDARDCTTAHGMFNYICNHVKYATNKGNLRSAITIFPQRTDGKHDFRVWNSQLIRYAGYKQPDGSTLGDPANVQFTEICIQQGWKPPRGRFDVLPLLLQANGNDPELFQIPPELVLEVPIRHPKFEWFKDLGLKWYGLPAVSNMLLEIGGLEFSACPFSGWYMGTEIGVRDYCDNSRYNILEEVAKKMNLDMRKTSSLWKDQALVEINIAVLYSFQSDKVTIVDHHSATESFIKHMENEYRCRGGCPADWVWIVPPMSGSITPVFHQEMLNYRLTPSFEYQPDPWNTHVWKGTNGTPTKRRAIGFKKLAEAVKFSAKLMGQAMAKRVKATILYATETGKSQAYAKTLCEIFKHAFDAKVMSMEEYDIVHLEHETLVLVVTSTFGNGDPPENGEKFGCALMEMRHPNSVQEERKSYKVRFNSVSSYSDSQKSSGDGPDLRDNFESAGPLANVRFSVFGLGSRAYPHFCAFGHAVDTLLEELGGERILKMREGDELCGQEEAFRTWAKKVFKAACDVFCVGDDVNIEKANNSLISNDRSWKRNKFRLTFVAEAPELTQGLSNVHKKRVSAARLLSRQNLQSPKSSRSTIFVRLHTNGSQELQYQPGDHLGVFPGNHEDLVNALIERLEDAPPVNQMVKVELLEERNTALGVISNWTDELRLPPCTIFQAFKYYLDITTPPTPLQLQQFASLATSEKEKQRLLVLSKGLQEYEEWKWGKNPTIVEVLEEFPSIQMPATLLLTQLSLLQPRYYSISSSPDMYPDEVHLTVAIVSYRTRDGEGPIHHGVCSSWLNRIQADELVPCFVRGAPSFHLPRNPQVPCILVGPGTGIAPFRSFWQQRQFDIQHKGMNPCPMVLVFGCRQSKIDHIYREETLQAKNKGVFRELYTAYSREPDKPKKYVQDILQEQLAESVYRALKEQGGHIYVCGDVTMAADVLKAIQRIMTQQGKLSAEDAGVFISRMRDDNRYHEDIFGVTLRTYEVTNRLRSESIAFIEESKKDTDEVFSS
# assay comment: Inhibition of human nNOS expressed in HEK293 cells assessed as NO production at 10 uM by transient transfection assay relative to BBS-4
# Type: cell-based
quantity name: inhibition

Q: Reported inhibition for `Cc1ncsc1C(=O)N(Cc1cc(=O)[nH]c2cccc(F)c12)c1cccc(Cl)c1` : what is it?
Ans: < 50%

Q: Reported inhibition for `Cc1ncsc1C(=O)N(Cc1cc(=O)[nH]c2c(F)cccc12)c1ccccc1` : what is it?
Ans: < 50%

Q: Reported inhibition for `Cc1ncsc1C(=O)N(Cc1cc(=O)[nH]c2c(F)cccc12)c1ccccc1Cl` : what is it?
Ans: < 50%

Q: Reported inhibition for `O=C(c1ccco1)N(Cc1cc(=O)[nH]c2ccccc12)c1ccccc1` : what is it?
Ans: < 50%

Q: Reported inhibition for `Cc1ncsc1C(=O)N(Cc1cc(=O)[nH]c2ccccc12)c1cccc(Cl)c1` : what is it?
Ans: < 50%

---

I'd be grateful if you could share measured EC50 for these entries.
# study system: UniProt P29475
# assay comment: Inhibition of human nNOS expressed in HEK293 cells assessed as NO production by transient transfection assay
Numbers only here, please. The scale is µM.

Q: Reported EC50 for `Cc1ncsc1C(=O)N(Cc1cc(=O)[nH]c2cc(F)ccc12)c1cccc(Cl)c1` : what is it?
Ans: 3.4

Q: Reported EC50 for `Cc1cccnc1C(=O)N(Cc1cc(=O)[nH]c2c(F)cccc12)c1cccc(Cl)c1` : what is it?
Ans: 4.1

---

# study system: Nitric oxide synthase, inducible (Homo sapiens, UniProt P35228)
# Sequence (P35228 whole entry): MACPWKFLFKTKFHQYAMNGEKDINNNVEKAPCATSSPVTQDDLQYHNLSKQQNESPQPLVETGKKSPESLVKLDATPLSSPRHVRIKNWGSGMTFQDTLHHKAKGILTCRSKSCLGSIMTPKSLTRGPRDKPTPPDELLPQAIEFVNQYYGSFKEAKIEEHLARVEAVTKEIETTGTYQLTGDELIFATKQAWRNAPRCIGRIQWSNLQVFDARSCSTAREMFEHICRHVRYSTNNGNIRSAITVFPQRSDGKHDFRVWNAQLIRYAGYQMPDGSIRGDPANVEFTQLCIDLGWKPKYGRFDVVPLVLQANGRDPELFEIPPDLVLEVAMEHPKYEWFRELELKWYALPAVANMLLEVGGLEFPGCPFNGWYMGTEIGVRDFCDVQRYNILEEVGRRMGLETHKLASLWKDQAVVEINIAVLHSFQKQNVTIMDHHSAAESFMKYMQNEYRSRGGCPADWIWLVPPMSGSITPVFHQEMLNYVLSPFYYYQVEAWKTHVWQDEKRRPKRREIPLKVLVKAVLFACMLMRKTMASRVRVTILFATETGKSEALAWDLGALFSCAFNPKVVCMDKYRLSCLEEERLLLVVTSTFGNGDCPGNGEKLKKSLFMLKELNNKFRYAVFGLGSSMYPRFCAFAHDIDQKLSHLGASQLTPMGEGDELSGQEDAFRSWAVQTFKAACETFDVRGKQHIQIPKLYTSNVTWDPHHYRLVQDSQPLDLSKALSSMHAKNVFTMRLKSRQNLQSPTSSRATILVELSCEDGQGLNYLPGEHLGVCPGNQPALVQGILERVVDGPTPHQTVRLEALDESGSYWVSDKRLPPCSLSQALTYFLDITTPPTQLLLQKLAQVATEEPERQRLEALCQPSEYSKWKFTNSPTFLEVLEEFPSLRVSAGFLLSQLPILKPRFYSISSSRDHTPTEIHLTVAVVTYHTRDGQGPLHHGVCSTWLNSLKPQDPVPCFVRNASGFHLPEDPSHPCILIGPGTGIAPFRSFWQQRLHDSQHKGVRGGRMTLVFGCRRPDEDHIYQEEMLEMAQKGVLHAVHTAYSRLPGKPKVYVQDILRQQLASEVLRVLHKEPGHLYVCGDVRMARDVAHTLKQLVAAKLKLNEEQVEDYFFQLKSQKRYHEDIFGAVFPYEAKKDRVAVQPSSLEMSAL
# assay comment: Inhibition of human iNOS expressed in HEK293 cells assessed as NO production by transient transfection assay
quantity name: EC50

Q: Reported EC50 for `Cc1cccc(N(Cc2cc(=O)[nH]c3c(F)cccc23)C(=O)c2scnc2C)c1` : what is it?
Ans: 0.1 µM

Q: Reported EC50 for `O=C(c1ccco1)N(Cc1cc(=O)[nH]c2c(F)cccc12)c1ccccc1` : what is it?
Ans: 1.1 µM

Q: Reported EC50 for `Cc1ncsc1C(=O)N(Cc1cc(=O)[nH]c2c(F)cccc12)c1cccc(C#N)c1` : what is it?
Ans: 0.056 µM

Q: Reported EC50 for `Cc1ncsc1C(=O)N(Cc1c[n+]([O-])cc2c(F)cccc12)c1cccc(Cl)c1` : what is it?
Ans: 0.087 µM

Q: Reported EC50 for `Cc1noc(C)c1C(=O)N(Cc1cc(=O)[nH]c2c(F)c(F)ccc12)c1cccc(Cl)c1` : what is it?
Ans: 0.003 µM

Q: Reported EC50 for `Cc1ncsc1C(=O)N(Cc1cc(=O)[nH]c2c(F)cccc12)c1ccc(Cl)cc1` : what is it?
Ans: 0.24 µM

Q: Reported EC50 for `Cc1ncsc1C(=O)N(Cc1cc(=O)[nH]c2c(F)cccc12)c1ccccc1Cl` : what is it?
Ans: 13 µM

Q: Reported EC50 for `CC1=C(C(=O)N(Cc2cc(=O)[nH]c3c(F)c(F)ccc23)c2cccc(Cl)c2)CNCC1` : what is it?
Ans: 0.011 µM

Q: Reported EC50 for `Cc1ncsc1C(=O)N(Cc1cc[nH]c(=O)c1)c1cccc(Cl)c1` : what is it?
Ans: > 100 µM
